# Substrate: C=C(C)CCOP(=O)(O)O
# assay name: PK-LDH coupled assay, A340
# Format: biochemical, Methanomethylophilus alvi
# measurement conditions: 2 mM ATP, 5 mM MgCl2, 25 mM Tris pH 7.8, 37 °C
Exercise: for every item that follows, state its recorded kcat/Km.
Number only, in M⁻¹ s⁻¹; omit the unit.

Provide kcat/Km value for the following protein: IPK from Candidatus methanomethylophilus alvus (CMA) (Candidatus Methanomethylophilus alvi Mx1201; I146A) (protein) MILIKLGGSVITDKSEYHKFNKETVSRLADEIRRSGQDVMVVHGAGSFGHVIAKKYAIQDGHVDDGQIPAAARIMCDTRELSSMVVEELLAQGIPAVSVAPGSCFVMEDGKLIVDNEEPIRRLADLGIMPVMFGDVVPDRKKGFAAVSGDQCMEVLCRMFDPEKVVFVSDIDGLYTADPKTDKKARLIGEVTRKKLDEALTDITVADVTGGVHSKMEAMLRMTDRNRRCYLVNGNAPNRLYSLLKGETVTCTVAKGGME
430000

Provide kcat/Km value for the following protein: IPK from Candidatus methanomethylophilus alvus (CMA) (Candidatus Methanomethylophilus alvi Mx1201; T209S) (protein) MILIKLGGSVITDKSEYHKFNKETVSRLADEIRRSGQDVMVVHGAGSFGHVIAKKYAIQDGHVDDGQIPAAARIMCDTRELSSMVVEELLAQGIPAVSVAPGSCFVMEDGKLIVDNEEPIRRLADLGIMPVMFGDVVPDRKKGFAIVSGDQCMEVLCRMFDPEKVVFVSDIDGLYTADPKTDKKARLIGEVTRKKLDEALTDITVADVSGGVHSKMEAMLRMTDRNRRCYLVNGNAPNRLYSLLKGETVTCTVAKGGME
200000

Provide kcat/Km value for the following protein: IPK from Candidatus methanomethylophilus alvus (CMA) (Candidatus Methanomethylophilus alvi Mx1201; I74A) (protein) MILIKLGGSVITDKSEYHKFNKETVSRLADEIRRSGQDVMVVHGAGSFGHVIAKKYAIQDGHVDDGQIPAAARAMCDTRELSSMVVEELLAQGIPAVSVAPGSCFVMEDGKLIVDNEEPIRRLADLGIMPVMFGDVVPDRKKGFAIVSGDQCMEVLCRMFDPEKVVFVSDIDGLYTADPKTDKKARLIGEVTRKKLDEALTDITVADVTGGVHSKMEAMLRMTDRNRRCYLVNGNAPNRLYSLLKGETVTCTVAKGGME
190000
